# System: NCI-H322M lung
# EXPERIMENTAL DETAILS: NCI-60 one-dose screen, 48 h
# CONDITION DETAILS: 10 µM unless noted
This is part of a sample that, as a whole, favours compounds with a hit. Of some 83,000 tested, about 20% had one in any assay. Activity calls are given as the source filed them. Rule for the calls: active = growth percent below 10; inactive = the rest.
Lab note: assign the record to one of active, inactive

Task: Record request — test call for Cc1nc2scc(-c3ccccc3)n2c(=O)c1CCO
Result: inactive

Task: Record request — test call for CN=S(=O)(NC(=O)c1ccc(Cl)cc1Cl)c1ccc(Br)s1 (stereo unspecified)
Result: inactive

Task: Record request — test call for c1ccc2nc(-c3ccc4ccccc4n3)ccc2c1
Result: inactive

Task: Record request — test call for COC1=CC(c2ccc[nH]2)=N/C1=C\c1[nH]c(C)c(C(=O)CCC(=O)Oc2ccc3c(c2)CCC2C3CC[C@]3(C)[C@@H](O)CC[C@@H]23)c1C (stereo partly specified)
Result: inactive

Task: Record request — test call for CCn1cc(C(=O)O)c(=O)c2cc(F)c(N3CCN(S(=O)(=O)c4ccc(Cl)cc4Cl)CC3)cc21
Result: active

Task: Record request — test call for N#CC1=C(N)n2nc(-c3ccncc3)nc2NC1c1cccc2ccccc12 (stereo unspecified)
Result: inactive

====

# Tested on: UACC-62 melanoma
# EXPERIMENTAL DETAILS: NCI-60 one-dose screen, 48 h (100 = growth as untreated, 0 = no growth, -100 = all killed)
# CONDITION DETAILS: 10 µM unless noted
This is part of a sample that, as a whole, favours compounds with a hit. Of some 83,000 tested, about 20% had one in any assay. The source made the active and inactive calls. Rule for the calls: active = growth percent below 10; inactive = the rest.
ASSAY READOUT: growth

Recorded results for 2 molecules are shown here.
| MOLECULE | growth |
| --- | --- |
| CC[C@H](C)[C@H]1NC(=O)[C@@H](N[C@](C)(O)[C@@H](N)CC(C)C)[C@@H](C)OC(=O)[C@H](Cc2ccc(OC)cc2)N(C)C(=O)[C@@H]2CCCN2C(=O)[C@H](CC(C)C)NC(=O)[C@@H](C)C(=O)[C@H](C(C)C)OC(=O)C[C@@H]1O | -42.9% (active) |
| CCC(=O)Nc1ccccc1C#C/C=C\C#Cc1ccccc1SC | 40.1% (inactive) |

growth in this record for CCNc1nc(N2CC(=O)Nc3cc(OC)ccc32)c2ccccc2n1 : 9.13% (active)

growth in this record for CCN(Cc1ccc(CN(CC)C(=O)C(Br)Br)cc1)C(=O)C(Br)Br : 18.2% (inactive)

growth in this record for Nc1nc(N)c2nc(CNc3ccc(C(=O)CC(CCC(=O)O)C(=O)O)cc3)cnc2n1 (stereo not given) : 26.6% (inactive)

====

# Tested on: M14 melanoma
# EXPERIMENTAL DETAILS: NCI-60 one-dose screen, 48 h (100 = growth as untreated, 0 = no growth, -100 = all killed)
# CONDITION DETAILS: 10 µM unless noted
About 83,000 compounds went through this panel and 20% of them were active in at least one assay; those are over-represented in the sample as a whole.
ASSAY READOUT: growth (%)
Numeric answer only, unit % assumed.

Recorded results for 6 molecules are shown here.
| MOLECULE | TESTED SYSTEM | ENDPOINT RESULT |
| --- | --- | --- |
| N#CC1=C(N)OC2=C(C(=O)CCC2)C1c1ccco1 (stereo unspecified) | M14 melanoma | 104 |
| CCCCNc1nnc(-c2cc(-c3cc4ccccc4o3)nn2-c2ccccc2)o1 | M14 melanoma | 108 |
| CC(CCc1ccccc1)NC(=O)c1n[nH]c(=O)c2ccccc12 (stereo unspecified) | M14 melanoma | 104 |
| CC(C)C[C@H](NC(=O)[C@@H](Cc1ccccc1)n1ccc(Nc2ccccc2)cc1=O)B(O)O | M14 melanoma | 9.32 |
| COc1cc(CNC(=O)CSc2nc3ccccc3c(=O)n2Cc2cc(OC)c(OC)c(OC)c2)cc(OC)c1OC | M14 melanoma | 97.2 |
| Cn1c(-c2nonc2NC(=O)c2ccc(F)cc2)nc2ccccc21 | M14 melanoma | 106 |

Observed growth, M14 melanoma, O=C(OCCCCOC(=O)n1cnc2ccccc21)n1cnc2ccccc21 : 102

Observed growth, M14 melanoma, COc1cc(-c2cc(/C=C3\CCCCC3=O)[nH]n2)cc(OC)c1OC : 101

Observed growth, M14 melanoma, CCn1cc(C(=O)O)c(=O)c2cc(F)c(N3CCN(S(=O)(=O)c4cccc5ccccc45)CC3)cc21 : 17.9

Observed growth, M14 melanoma, Clc1nc2ccccc2nc1CI : 55.3

Observed growth, M14 melanoma, CCC1CCc2nc3sc(C(=O)Nc4cccc(C)c4)c(N)c3cc2C1 (stereo unspecified) : 55.1

====

# Tested on: A498 renal
# EXPERIMENTAL DETAILS: NCI-60 one-dose screen, 48 h
# CONDITION DETAILS: 10 µM unless noted
The panel holds about 83,000 compounds, 20% with a hit somewhere; the sample as a whole holds those more often. Activity calls are given as the source filed them. How the source made its calls: active means growth percent below 10; inactive means the rest.
Lab note: assign the record to one of yes (active), no (inactive)

Worked cases, answers included:
| MOLECULE | QUALITATIVE LABEL |
| --- | --- |
| CCCCCCCCCCCCCCCCC(Br)C(=O)O (stereo not given) | no |
| Nc1c(C(=O)Nc2ccccc2)sc2nc3c(cc12)CN(Cc1ccccc1)CC3 | no |
| O=C(Cc1n[nH]c(=O)c2ccccc12)OCc1c(Cl)cccc1Cl | no |
| O=C(/C=C/CN1CCOCC1)Nc1cc2c(Nc3ccc(F)c(Cl)c3F)ncnc2cc1OCCOC(F)F | yes |
| N#CC1=C(N)n2nc(-c3ccncc3)nc2NC1c1cccc2ccccc12 (stereo not given) | no |

Task: Record request — test call for CCC1CCc2nc3sc(C(=O)Nc4ccccc4F)c(N)c3cc2C1 (stereo not given)
Result: no

Task: Record request — test call for O=S(=O)(NCCCNc1cc(-c2cn(-c3ccccc3)nc2-c2cccc(O)c2)ccn1)c1ccc(Cl)cc1
Result: no

Task: Record request — test call for CC(=O)c1cc(C(=O)c2ccc3c(c2)Sc2ccccc2N3)c2cc(C)ccn12
Result: yes

Task: Record request — test call for Cc1ccc(S(=O)(=O)N2CCC(C(=O)Nc3ccc(F)cc3F)CC2)cc1
Result: no

Task: Record request — test call for O=C1NC(Cc2c[nH]c3ccccc23)C(=O)N1Cc1ccc(Cl)cc1 (stereo not given)
Result: no

====

# Tested on: T-47D breast
# EXPERIMENTAL DETAILS: NCI-60 one-dose screen, 48 h (100 = growth as untreated, 0 = no growth, -100 = all killed)
# CONDITION DETAILS: 10 µM unless noted
About 83,000 compounds went through this panel and 20% of them were active in at least one assay; those are over-represented in the sample as a whole.
growth less than 70% is criterion met; growth greater than or equal to 70% is criterion not met.

Worked cases, answers included:
| MOLECULE | QUALITATIVE LABEL |
| --- | --- |
| COc1ccc2c(c1)NC(=O)CN2c1nc(NC2CC2)nc2ccccc12 | criterion met |
| COc1cc(OC)c(C(=O)/C=C/c2ccc(C#N)cc2)c(OC)c1 | criterion met |
| COc1cc(NCCN=C(N)NC(N)=NC(C)C)c2ncccc2c1 | criterion met |

Task: Find out if reported growth for COc1ccc(-n2c(C)cc(-c3ccccc3)c2C)cc1 is less than 70%
Result: criterion met

Task: Find out if reported growth for O=C(NCCCN1CCN(CCCNC(=O)C2CCCCC2)CC1)C1CCCCC1 is less than 70%
Result: criterion not met

Task: Find out if reported growth for Cc1cc(NC(=O)COC(=O)c2sc3cc(F)ccc3c2Cl)no1 is less than 70%
Result: criterion not met

====

# System: HCT-116 colon
# EXPERIMENTAL DETAILS: NCI-60 one-dose screen, 48 h (100 = growth as untreated, 0 = no growth, -100 = all killed)
# CONDITION DETAILS: 10 µM unless noted
The panel holds about 83,000 compounds, 20% with a hit somewhere; the sample as a whole holds those more often. The source made the active and inactive calls. The calls were made as follows: active = growth percent below 10; inactive = the rest.
ASSAY READOUT: growth

Recorded results for 2 compounds are shown here.
| COMPOUND | ASSAY READOUT | ENDPOINT RESULT |
| --- | --- | --- |
| CN1CCN(CCCOc2ccc3nc(Nc4ccc(C(F)(F)F)c(Cl)c4)ccc3c2)CC1 | growth | 0.975% (active) |
| CC1=C(C#N)C(C)(C)C(C#N)=C(C)N1 | growth | 104% (inactive) |

growth in this record for O=c1c2cccc3c(Nc4ccc(F)cc4)ccc(c32)c2nc3ccccc3n12 : 93.9% (inactive)

growth in this record for CCOC(=O)c1cc(/C(=N\O)c2cc(OC)c(OC)c(OC)c2)n2cc(C)cc(C)c12 : -6.14% (active)

growth in this record for CCCCCCC[C@@H](O)CC(=O)N[C@H](CCCCN)C(=O)N[C@H](Cc1c[nH]c2ccccc12)C(=O)NC(CCCCN)C(=O)N[C@H](CC(C)C)C(=O)N[C@H](Cc1ccccc1)C(=O)N[C@H](CCCCN)C(=O)N[C@H](CCCCN)C(=O)N[C@H](CC(C)C)C(=O)N1CCCC1C(=O)N[C@H](CCCCN)C(=O)N[C@H](Cc1ccccc1)C(=O)N[C@H](CC(C)C)C(=O)N[C@H](Cc1c[nH]cn1)C(=O)N[C@H](CC(C)C)C(=O)N[C@H](C)C(=O)N[C@H](CCCCN)C(=O)N[C@H](CCCCN)C(=O)N[C@H](Cc1ccccc1)C(=O)O (stereo partly specified) : -35.7% (active)
